Attribution: patent US20210002231A1

Target: human MOPr (Homo sapiens)
Sequence (P35372 whole entry): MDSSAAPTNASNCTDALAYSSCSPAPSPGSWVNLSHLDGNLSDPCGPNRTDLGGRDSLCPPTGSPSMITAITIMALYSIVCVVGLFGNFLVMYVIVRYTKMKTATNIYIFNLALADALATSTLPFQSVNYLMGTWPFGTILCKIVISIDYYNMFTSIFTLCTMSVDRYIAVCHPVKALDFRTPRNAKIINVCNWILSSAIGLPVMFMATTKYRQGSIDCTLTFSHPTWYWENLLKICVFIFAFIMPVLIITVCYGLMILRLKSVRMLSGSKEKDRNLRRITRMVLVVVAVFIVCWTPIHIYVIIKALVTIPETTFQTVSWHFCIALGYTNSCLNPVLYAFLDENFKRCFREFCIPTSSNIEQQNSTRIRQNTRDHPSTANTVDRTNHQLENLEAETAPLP
Experiment: cell-based
Format: cell-based
Set-up: expressed in transfected cells; HEK293-Glo20F cells (cAMP)
Conditions: read-out: MOPr (cAMP) Emax
Starred links: 1 amine or outer side, 2 acyl side, 3 side chain; linkers in the order of their positions; H or OH if unused. Non-standard residues stand in square brackets, D forms with d. Residues, ends and D or L forms follow the SMILES beside them. Nva(5-(4-Bn-piperidin-1-yl)) = N[C@@H](CCCN1CCC(Cc2ccccc2)CC1)C(=O)O; X5 = O=C1[C@@H](N[*:1])Cc2ccccc2CN1CCCC(=O)[*:2]; X1 = O=C1[C@@H](N[*:1])Cc2ccccc2CN1CCC(=O)[*:2]; Dmt = Cc1cc(O)cc(C)c1C[C@H](N)C(=O)O; dNMeA = CN[C@H](C)C(=O)O
quantity_kind: Emax (%)
The reply should be a number in %, with the unit left off.

Form field Emax for item Cc1cc(O)cc(C)c1C[C@H](N)C(=O)N(C)[C@H](C)C(=O)N[C@H]1Cc2ccccc2CN(CCCC(=O)N[C@@H](CCCN2CCC(Cc3ccccc3)CC2)C(=O)N[C@@H](Cc2ccccc2)C(N)=O)C1=O [DP0017, H-Dmt-N(Me)-D-Ala-AbaGABA-Bpa-Phe-NH2] (H-[Dmt][dNMeA][X5][Nva(5-(4-Bn-piperidin-1-yl))]F-NH2) on human MOPr (Homo sapiens): 70

Form field Emax for item Cc1cc(O)cc(C)c1C[C@H](N)C(=O)N[C@H](CCCNC(=N)N)C(=O)N[C@H]1Cc2ccccc2CN(CCCC(=O)N[C@@H](CCCN2CCC(Cc3ccccc3)CC2)C(=O)N[C@@H](Cc2ccccc2)C(N)=O)C1=O [DP0018, H-Dmt-D-Arg-AbaGABA-Bpa-Phe-NH2] (H-[Dmt][dR][X5][Nva(5-(4-Bn-piperidin-1-yl))]F-NH2) on human MOPr (Homo sapiens): 108

Form field Emax for item Cc1cc(O)cc(C)c1C[C@H](N)C(=O)N(C)[C@H](C)C(=O)N[C@H]1Cc2ccccc2CN(CCC(=O)N[C@@H](CCCN2CCC(Cc3ccccc3)CC2)C(=O)N[C@@H](Cc2ccccc2)C(N)=O)C1=O [DP0007, H-Dmt-N(Me)-D-Ala-Aba-β-Ala-Bpa-Phe-NH2] (H-[Dmt][dNMeA][X1][Nva(5-(4-Bn-piperidin-1-yl))]F-NH2) on human MOPr (Homo sapiens): 64

---

Target: UniProt:P35372
Assay: BRET1 β-arrestin-2 recruitment assay;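 note: Emax relative to maximal DAMGO-induced BRET as 100%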
Assay type: cell-based
Set-up: expressed in transfected cells; host or cells: HEK293 cells stably expressing eYFP-β-arrestin-2, transiently transfected with the Rluc8-MOP plasmid
Conditions: read-out: MOPr (β-arrestin-2) Emax
Starred links: 1 amine or outer side, 2 acyl side, 3 side chain; linkers in the order of their positions; H or OH if unused. Non-standard residues stand in square brackets, D forms with d. Residues, ends and D or L forms follow the SMILES beside them. Nva(5-(4-Bn-piperidin-1-yl)) = N[C@@H](CCCN1CCC(Cc2ccccc2)CC1)C(=O)O; X5 = O=C1[C@@H](N[*:1])Cc2ccccc2CN1CCCC(=O)[*:2]; X1 = O=C1[C@@H](N[*:1])Cc2ccccc2CN1CCC(=O)[*:2]; Dmt = Cc1cc(O)cc(C)c1C[C@H](N)C(=O)O; dNMeA = CN[C@H](C)C(=O)O; βAla = NCCC(=O)O
Returns one of true or false; true when Emax is >= 30%.

# input I'd appreciate it if you could say whether `Cc1cc(O)cc(C)c1C[C@H](N)C(=O)N[C@H](CCCNC(=N)N)C(=O)N[C@H]1Cc2c(ccc3ccccc23)CN(CC(=O)N[C@@H](CCCN2CCC(Cc3ccccc3)CC2)C(=O)N[C@@H](Cc2ccccc2)C(N)=O)C1=O` has Emax at least equal to 30%.
# output false

# input I'd appreciate it if you could say whether Cc1cc(O)cc(C)c1C[C@H](N)C(=O)N[C@H](CCCNC(=N)N)C(=O)N[C@H]1Cc2ccccc2CN(CCCC(=O)N[C@@H](CCCN2CCC(Cc3ccccc3)CC2)C(=O)N[C@@H](Cc2ccccc2)C(N)=O)C1=O [DP0018, H-Dmt-D-Arg-AbaGABA-Bpa-Phe-NH2] (H-[Dmt][dR][X5][Nva(5-(4-Bn-piperidin-1-yl))]F-NH2) has Emax at least equal to 30%.
# output true

# input I'd appreciate it if you could say whether Cc1cc(O)cc(C)c1C[C@H](N)C(=O)N[C@H](CCCNC(=N)N)C(=O)N[C@H]1Cc2ccccc2CN(CCC(=O)N[C@@H](CCCN2CCC(Cc3ccccc3)CC2)C(=O)N[C@@H](Cc2ccccc2)C(=O)NCCC(N)=O)C1=O [DP0016, H-Dmt-D-Arg-Aba-β-Ala-Bpa-Phe-β-Ala-NH2] (H-[Dmt][dR][X1][Nva(5-(4-Bn-piperidin-1-yl))]F[βAla]-NH2) has Emax at least equal to 30%.
# output true

# input I'd appreciate it if you could say whether Cc1cc(O)cc(C)c1C[C@H](N)C(=O)N[C@H](CCCNC(=N)N)C(=O)N[C@H]1Cc2ccccc2CN(CCC(=O)N[C@@H](CCCNC(=N)N)C(=O)N[C@@H](Cc2ccccc2)C(N)=O)C1=O [KGFF03, H-Dmt-D-Arg-Aba-β-Ala-Arg-Phe-NH2] (HELM PEPTIDE1{[Cc1cc(O)cc(C)c1C[C@H](N)C(=O)[*:2]].[dR].[O=C1[C@@H](N[*:1])Cc2ccccc2CN1CCC(=O)[*:2]].R.F.[am]}$$$$V2.0) has Emax at least equal to 30%.
# output true

# input I'd appreciate it if you could say whether CC[C@H](C)[C@H](NC(=O)[C@H](CCCN1CCC(Cc2ccccc2)CC1)NC(=O)CCN1Cc2ccccc2C[C@H](NC(=O)[C@@H](CCCNC(=N)N)NC(=O)[C@@H](N)Cc2c(C)cc(O)cc2C)C1=O)C(N)=O [DP0002, H-Dmt-D-Arg-Aba-β-Ala-Bpa-Ile-NH2] (H-[Dmt][dR][X1][Nva(5-(4-Bn-piperidin-1-yl))]I-NH2) has Emax at least equal to 30%.
# output true

# input I'd appreciate it if you could say whether Cc1cc(O)cc(C)c1C[C@H](N)C(=O)N(C)[C@H](C)C(=O)N[C@H]1Cc2ccccc2CN(CCC(=O)N[C@@H](CCCN2CCC(Cc3ccccc3)CC2)C(=O)N[C@@H](Cc2ccccc2)C(N)=O)C1=O [DP0007, H-Dmt-N(Me)-D-Ala-Aba-β-Ala-Bpa-Phe-NH2] (H-[Dmt][dNMeA][X1][Nva(5-(4-Bn-piperidin-1-yl))]F-NH2) has Emax at least equal to 30%.
# output false

# input I'd appreciate it if you could say whether Cc1cc(O)cc(C)c1C[C@H](N)C(=O)N[C@H](CCCNC(=N)N)C(=O)N[C@H]1Cc2ccccc2CN(CCC(N)=O)C1=O [KGOP01, reference compound] has Emax at least equal to 30%.
# output true
